- System: PSN1 cells, pERK
- PROTOCOL_DESCRIPTION: Inhibition of KRas phosphorylation of ERK (Cisbio HTRF Advanced pERK assay)
- Format: cell-based
- MEASUREMENT_CONTEXT: Homo sapiens, PSN1, 3 h, read-out: Inhibition (HTRF IC50 nM) of KRas-mediated Phosphorylation of ERK, PSN1
The entries below come with measured IC50 values attached.

>  <COMPOUND>
CC1(O)COCCN(c2nc(OC[C@@]34CCCN3C[C@H](F)C4)nc3c2CCN(c2cc(O)cc4ccc(F)c(Br)c24)C3)C1 (stereo partly drawn)

>  <TESTED_SYSTEM>
PSN1 cells, pERK

>  <RESULT>
6120 nM

$$$$
>  <COMPOUND>
CCc1c(F)ccc2cc(O)cc(N3CCc4c(nc(OC[C@@]56CCCN5C[C@H](F)C6)nc4N4C[C@H]5CC[C@H](O)[C@H]5C4)C3)c12

>  <TESTED_SYSTEM>
PSN1 cells, pERK

>  <RESULT>
≥ 10000 nM

$$$$

Continue with the next compound.
// fetch IC50 given entry Oc1cc(N2CCc3c(nc(OC[C@@]45CCCN4C[C@H](F)C5)nc3N3CC4CC(O)CC3C4)C2)c2c(Cl)c(F)ccc2c1 (single isomer, unassigned)
5630 nM

----------
The entries below come with measured IC50 values attached.
- TESTED_SYSTEM: KRas^G12S (Homo sapiens, UniProt P01116, G12S)
- Construct: […]; biotin (biotinylated)
- Sequence (P01116 1-169 isoform P01116-2 G12S): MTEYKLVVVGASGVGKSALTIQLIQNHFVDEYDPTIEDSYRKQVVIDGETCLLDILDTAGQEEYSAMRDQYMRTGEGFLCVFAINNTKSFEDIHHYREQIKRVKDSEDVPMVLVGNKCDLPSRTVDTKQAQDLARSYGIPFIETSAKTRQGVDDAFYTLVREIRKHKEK
- PROTOCOL_DESCRIPTION: KRas binding assay (TR-FRET displacement of Cy5 labelled tracer)
Answer with a number only, understood to be in nM.

Under KRas^G12S (Homo sapiens, UniProt P01116, G12S), report IC50 for `CCc1cccc2cccc(N3CCc4c(nc(OCC56CCCN5CCC6)nc4NCCNS(N)(=O)=O)C3)c12`
6740

Under KRas^G12S (Homo sapiens, UniProt P01116, G12S), report IC50 for `CCc1cccc2cccc(N3CCc4c(nc(OCC56CCCN5CCC6)nc4N4CCn5ncc(S(C)(=O)=O)c5C4)C3)c12`
5680

Under KRas^G12S (Homo sapiens, UniProt P01116, G12S), report IC50 for `CCc1cccc2cccc(N3CCc4c(nc(OCC56CCCN5CCC6)nc4NCc4nnc(N)o4)C3)c12`
1990

Under KRas^G12S (Homo sapiens, UniProt P01116, G12S), report IC50 for `CCc1cccc2cccc(N3CCc4c(nc(OCC56CCCN5CCC6)nc4N4CCC(n5ccnn5)CC4)C3)c12`
4720

Under KRas^G12S (Homo sapiens, UniProt P01116, G12S), report IC50 for `CCc1cccc2cccc(N3CCc4c(nc(OCC56CCCN5CCC6)nc4N4C[C@@H](C)C[C@H](O)C4)C3)c12`
520

Under KRas^G12S (Homo sapiens, UniProt P01116, G12S), report IC50 for CCc1cccc2cccc(N3CCc4c(nc(OCC56CCCN5CCC6)nc4N4CC(C)CC(CO)C4)C3)c12 (stereo not shown)
1020

Under KRas^G12S (Homo sapiens, UniProt P01116, G12S), report IC50 for CCc1cccc2cccc(N3CCc4c(nc(OCC56CCCN5CCC6)nc4N4CCCC(N5CCCS5(=O)=O)C4)C3)c12 (stereo not shown)
263
